Assay: BET inhibitor-based combinations targeting novel dependencies in MECOM-rearranged (r) AML: SET-2 cell line (AID 2202231); also: potency is read from the fitted curve at half-maximal effect; nearly all actives have a fitted effect of over 35% in size
Settings: SET-2 AML cells viability, CellTiter-Glo luminescence, 48 h
Results filed as inconclusive are left out. Activity calls are given as the source filed them. Calls follow the shape of the dose curve; as a rule, active = well fitted inhibition curve with a large enough effect; inconclusive = small, poorly fitted or top-dose-only effect; inactive = no such curve, though single readings can be large or run the other way.
Potency overview

Worked set:
## Input Given the molecule CC(=O)N1CCN(CCOc2ccc(C3CCN(C4=Nn5c(nnc5C(F)(F)F)CC4)CC3)cc2)CC1 , what is its reported Potency?
## Output 14.8 µM (active)

## Input Another molecule: CN1CCN(c2ccc(OC(F)(F)F)c(Nc3ncc4c(n3)-c3c(c(C(N)=O)nn3CCO)CC4)c2)CC1
## Output 0.186 µM (active)

More entries:
## Input Given the molecule Cc1c(NC(=O)c2ccc(C(C)(C)C)cc2)cccc1-c1cn(C)c(=O)c(Nc2ccc(C(=O)N3CCOCC3)cc2)n1 , what is its reported Potency?
## Output 16.6 µM (active)

## Input Another molecule: NC(=O)Nc1cc(-c2cccc(F)c2)sc1C(=O)N[C@H]1CCCNC1
## Output 0.934 µM (active)

## Input Another molecule: c1ccc(-c2ccc(CNc3nc(-c4ccccn4)nnc3-c3ccccc3)cc2)cc1
## Output 2.35 µM (active)

## Input Another molecule: COc1cc2c(Nc3ccc(NC(=O)c4ccccc4)cc3)ncnc2cc1OCCCN1CCOCC1
## Output 26.3 µM (active)

###

Target or system: Cellular tumor antigen p53 (Homo sapiens) (UniProt P04637)
Sequence (P04637 whole entry, looked up): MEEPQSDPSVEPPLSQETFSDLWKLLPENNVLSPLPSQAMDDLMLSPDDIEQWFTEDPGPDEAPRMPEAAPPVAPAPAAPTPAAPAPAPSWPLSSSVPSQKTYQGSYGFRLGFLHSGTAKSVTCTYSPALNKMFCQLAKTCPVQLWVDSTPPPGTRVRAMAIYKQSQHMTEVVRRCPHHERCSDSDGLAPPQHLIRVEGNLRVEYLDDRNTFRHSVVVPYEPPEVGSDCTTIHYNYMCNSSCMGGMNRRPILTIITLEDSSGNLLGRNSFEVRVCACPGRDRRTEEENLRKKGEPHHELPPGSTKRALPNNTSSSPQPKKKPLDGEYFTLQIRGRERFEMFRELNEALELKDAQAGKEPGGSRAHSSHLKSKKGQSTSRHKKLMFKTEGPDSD
Assay: Primary qHTS for small molecule compounds that upregulate eGFP-tagged delta133p53alpha (in N-terminal) cells. (AID 2060322);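 also: cells pre-induced with doxycycline then dosed without doxycycline; series mostly up to about 56 µM; 0% = DMSO vehicle and 100% = reference activator; nearly all actives have a fitted effect of over 75% in size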
Settings: NCI-H358 eGFP-delta133p53alpha fluorescence, 24 h; stronger effect = higher value
Results filed as inconclusive are left out.
activation overview
Reply with just the number (in %).

## Input Given the compound C=Cc1c(C)c2cc3nc(cc4[nH]c(cc5nc(cc1[nH]2)C(C)=C5CCC(=O)O)c(CCC(=O)OC)c4C)[C@@]1(C)C3=CC=C(C(=O)OC)[C@H]1C(=O)OC , what is its reported activation?
## Output 9.63

## Input Another compound: COc1cccc(CNC(=O)Nc2nc(-c3ccncc3)cs2)c1
## Output -8.04

## Input Another compound: CC[n+]1c(/C=C/C=C2/N(C)c3ccccc3C2(C)C)sc2ccccc21
## Output -26.3

More entries:
## Input Given the compound COc1cccc(C(=O)NCCNc2nc3cc(C)cc(C)c3cc2C#N)c1 , what is its reported activation?
## Output -1.91

## Input Another compound: O=c1[nH]c(=O)n([C@H]2C[C@@H](O)[C@@H](CO)O2)cc1C=CBr
## Output 11.1

## Input Another compound: Nc1ccc([N+](=O)[O-])cc1O
## Output -7.53

## Input Another compound: CC1=C(C(=O)O)N2C(=O)[C@@H](NC(=O)[C@H](N)c3ccc(O)cc3)[C@H]2SC1
## Output 0

## Input Another compound: CCC[C@H](N[C@H]1CCc2cc(F)cc(F)c2C1)C(=O)Nc1cn(C(C)(C)CNCC(C)(C)C)cn1
## Output -12.9

## Input Another compound: C[C@H](O)C(=O)C1=Nc2c(nc(N)[nH]c2=O)NC1
## Output -8.4

## Input Another compound: CC1(CO)CC(O)C2(C)CCC3(C)C(=CCC4C5(C=O)CCC(OC6OC(C(=O)O)C(O)C(O)C6OC6OC(C(=O)O)C(O)C(O)C6O)C(C)(C)C5CCC43C)C2C1 (stereo not given)
## Output -10.7

## Input Another compound: CN[C@@H]1[C@@H](O)[C@@H](O[C@@H]2[C@@H](O)[C@H](O[C@H]3O[C@H](CN)[C@@H](O)[C@H](O)[C@H]3O)[C@@H](N)C[C@H]2NC(=O)[C@@H](O)CN)OC[C@]1(C)O
## Output -2.86

## Input Another compound: Cn1cc(C(F)(F)F)nc1-c1ccc(OCC(O)CNCCOc2ccc(O)c(C(N)=O)c2)cc1 (stereo not given)
## Output -30.5
